Recorded pEC50 by entry
# Target Or Test System: T1, extracellular domain (ECD) of human IGSF11 (VSIG3), HIS-tagged (human, UniProt Q5DX21 23-241, biotinylated in the ELISA of Example 4 (site not stated))
# T1 construct: also called HIS-IGSF11; IGSF11-HIS; not shown: HIS6 tag
# T1 sequence: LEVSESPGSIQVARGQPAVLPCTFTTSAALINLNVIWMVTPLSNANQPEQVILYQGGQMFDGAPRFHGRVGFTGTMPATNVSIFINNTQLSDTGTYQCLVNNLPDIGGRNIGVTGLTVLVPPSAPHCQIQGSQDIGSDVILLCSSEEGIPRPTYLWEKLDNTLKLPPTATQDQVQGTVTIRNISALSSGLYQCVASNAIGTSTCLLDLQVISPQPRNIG
# Measurement Notes: ELISA, coated IGSF11-HIS, IgG1 format; EC50 grade (* >1 nM, ** 0.05-1 nM, *** 0.02-0.05 nM, **** <0.02 nM)
pEC50: −log10 of the molar value.
Quantity Kind: pEC50

>>> result("A-006 (human IgG1 format) (antibody, V domains shown, human IgG1 format) VH: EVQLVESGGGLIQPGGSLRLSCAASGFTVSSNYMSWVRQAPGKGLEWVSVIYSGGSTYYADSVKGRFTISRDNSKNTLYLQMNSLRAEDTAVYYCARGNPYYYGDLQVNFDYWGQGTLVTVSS VL: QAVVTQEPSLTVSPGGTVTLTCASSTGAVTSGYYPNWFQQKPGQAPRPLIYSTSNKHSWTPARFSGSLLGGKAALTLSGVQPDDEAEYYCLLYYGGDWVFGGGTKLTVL")
"> 10.70"
>>> result("A-025 (human IgG1 format) (antibody, V domains shown, human IgG1 format) VH: QVQLVQSGAEVKKPGSSVKVSCKASGGTFSSYAISWVRQAPGQGLEWMGGIIPIFGTANYAQKFQGRVTITADESTSTAYMELTSLRSEDTAVYYCARGGWLRQNWFDPWGQGTLVTVSS VL: SSELTQDPAVSVALGQTVRITCQGDSLRSYYASWYQQKPGQAPVLVIYGKNNRPSGIPDRFSGSSSGNTASLTITGAQAEDEADYYCNSRDSSGNHPRVFGGGTKLTVL")
"9.00 to 10.30"
>>> result("A-012 (human IgG1 format) (antibody, V domains shown, human IgG1 format) VH: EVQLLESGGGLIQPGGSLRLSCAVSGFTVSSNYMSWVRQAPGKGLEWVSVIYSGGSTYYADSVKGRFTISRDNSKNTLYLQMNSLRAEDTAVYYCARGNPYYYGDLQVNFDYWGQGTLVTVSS VL: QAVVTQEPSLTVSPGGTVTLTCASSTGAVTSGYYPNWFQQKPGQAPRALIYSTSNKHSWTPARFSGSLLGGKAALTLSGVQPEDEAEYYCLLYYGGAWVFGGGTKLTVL")
"10.30 to 10.70"
